Test: Blood levels of penciclovir in Pekin ducks after oral dosing with penciclovir or famciclovir
Format: in vivo
Details: duck, 25 mg/kg, 60 min, oral famciclovir 25 mg/kg, Duck No. 111
QUANTITY_KIND: concentration at 1 h (µM)
The reply should be a number in µM, with the unit left off.

**Query** Tell me the measured concentration at 1 h of CC(=O)OCC(CCn1cnc2cnc(N)nc21)COC(C)=O [famciclovir] , please.
**Result** 34

----------
Assay: Blood levels of penciclovir in Pekin ducks after oral dosing with penciclovir or famciclovir
Assay type: in vivo
Conditions: duck, 25 mg/kg, 360 min, oral famciclovir 25 mg/kg, Duck No. 111
QUANTITY_KIND: concentration at 6 h (µM)
# value in µM; strip the unit string

**Query** Form field: reported concentration at 6 h of CC(=O)OCC(CCn1cnc2cnc(N)nc21)COC(C)=O [famciclovir]
**Result** 6.1

----------
Assay: Blood levels of penciclovir in Pekin ducks after oral dosing with penciclovir or famciclovir
Format: in vivo
Conditions: duck, 5 mg/kg, 0-6 hr, oral famciclovir 5 mg/kg, Duck No. 117, read-out: AUC (area under the 0-6 hr. concentration/time curve) of penciclovir in blood
QUANTITY_KIND: AUC at 6 h (µM·h)
State the answer as a number, implicitly in µM·h.

**Query** Reported AUC at 6 h for `CC(=O)OCC(CCn1cnc2cnc(N)nc21)COC(C)=O` : what is it?
**Result** 15

----------
Assay: Blood levels of penciclovir in Pekin ducks after oral dosing with penciclovir or famciclovir
Type: in vivo
Conditions: duck, 25 mg/kg, 240 min, oral famciclovir 25 mg/kg, Duck No. 111
QUANTITY_KIND: concentration at 4 h (µM)
Expressed in µM, but write only the number.

**Query** Name the recorded concentration at 4 h for `CC(=O)OCC(CCn1cnc2cnc(N)nc21)COC(C)=O` .
**Result** 14

----------
Assay: Blood levels of penciclovir in Pekin ducks after oral dosing with penciclovir or famciclovir
Type: in vivo
Settings: duck, 100 mg/kg, 30 min, oral penciclovir 100 mg/kg, Duck No. 142
QUANTITY_KIND: concentration at 0.5 h
Please format your answer as a value with the unit trailing.

**Query** What does the data say about its concentration at 0.5 h? Entry: `Nc1nc2c(ncn2CCC(CO)CO)c(=O)[nH]1`
**Result** 44 µM

----------
Assay: Blood levels of penciclovir in Pekin ducks after oral dosing with penciclovir or famciclovir
Format: in vivo
Details: duck, 25 mg/kg, 120 min, oral famciclovir 25 mg/kg, Duck No. 111
QUANTITY_KIND: concentration at 2 h (µM)
Give the value, in units of µM, as a plain number.

**Query** Give the measured concentration at 2 h of `CC(=O)OCC(CCn1cnc2cnc(N)nc21)COC(C)=O` .
**Result** 33

----------
Experiment: Blood levels of penciclovir in Pekin ducks after oral dosing with penciclovir or famciclovir
Assay type: in vivo
Conditions: duck, 100 mg/kg, 60 min, sample collected at 65 min, oral penciclovir 100 mg/kg, Duck No. 163
QUANTITY_KIND: concentration at 65 min (µM)
# output: bare number, implied unit µM

**Query** Would you kindly share the measured concentration at 65 min for `Nc1nc2c(ncn2CCC(CO)CO)c(=O)[nH]1` ?
**Result** 44
